# target_desc: Neurogenic locus notch homolog protein 3 (Homo sapiens) (UniProt Q9UM47)
# Sequence (Q9UM47 whole entry, looked up): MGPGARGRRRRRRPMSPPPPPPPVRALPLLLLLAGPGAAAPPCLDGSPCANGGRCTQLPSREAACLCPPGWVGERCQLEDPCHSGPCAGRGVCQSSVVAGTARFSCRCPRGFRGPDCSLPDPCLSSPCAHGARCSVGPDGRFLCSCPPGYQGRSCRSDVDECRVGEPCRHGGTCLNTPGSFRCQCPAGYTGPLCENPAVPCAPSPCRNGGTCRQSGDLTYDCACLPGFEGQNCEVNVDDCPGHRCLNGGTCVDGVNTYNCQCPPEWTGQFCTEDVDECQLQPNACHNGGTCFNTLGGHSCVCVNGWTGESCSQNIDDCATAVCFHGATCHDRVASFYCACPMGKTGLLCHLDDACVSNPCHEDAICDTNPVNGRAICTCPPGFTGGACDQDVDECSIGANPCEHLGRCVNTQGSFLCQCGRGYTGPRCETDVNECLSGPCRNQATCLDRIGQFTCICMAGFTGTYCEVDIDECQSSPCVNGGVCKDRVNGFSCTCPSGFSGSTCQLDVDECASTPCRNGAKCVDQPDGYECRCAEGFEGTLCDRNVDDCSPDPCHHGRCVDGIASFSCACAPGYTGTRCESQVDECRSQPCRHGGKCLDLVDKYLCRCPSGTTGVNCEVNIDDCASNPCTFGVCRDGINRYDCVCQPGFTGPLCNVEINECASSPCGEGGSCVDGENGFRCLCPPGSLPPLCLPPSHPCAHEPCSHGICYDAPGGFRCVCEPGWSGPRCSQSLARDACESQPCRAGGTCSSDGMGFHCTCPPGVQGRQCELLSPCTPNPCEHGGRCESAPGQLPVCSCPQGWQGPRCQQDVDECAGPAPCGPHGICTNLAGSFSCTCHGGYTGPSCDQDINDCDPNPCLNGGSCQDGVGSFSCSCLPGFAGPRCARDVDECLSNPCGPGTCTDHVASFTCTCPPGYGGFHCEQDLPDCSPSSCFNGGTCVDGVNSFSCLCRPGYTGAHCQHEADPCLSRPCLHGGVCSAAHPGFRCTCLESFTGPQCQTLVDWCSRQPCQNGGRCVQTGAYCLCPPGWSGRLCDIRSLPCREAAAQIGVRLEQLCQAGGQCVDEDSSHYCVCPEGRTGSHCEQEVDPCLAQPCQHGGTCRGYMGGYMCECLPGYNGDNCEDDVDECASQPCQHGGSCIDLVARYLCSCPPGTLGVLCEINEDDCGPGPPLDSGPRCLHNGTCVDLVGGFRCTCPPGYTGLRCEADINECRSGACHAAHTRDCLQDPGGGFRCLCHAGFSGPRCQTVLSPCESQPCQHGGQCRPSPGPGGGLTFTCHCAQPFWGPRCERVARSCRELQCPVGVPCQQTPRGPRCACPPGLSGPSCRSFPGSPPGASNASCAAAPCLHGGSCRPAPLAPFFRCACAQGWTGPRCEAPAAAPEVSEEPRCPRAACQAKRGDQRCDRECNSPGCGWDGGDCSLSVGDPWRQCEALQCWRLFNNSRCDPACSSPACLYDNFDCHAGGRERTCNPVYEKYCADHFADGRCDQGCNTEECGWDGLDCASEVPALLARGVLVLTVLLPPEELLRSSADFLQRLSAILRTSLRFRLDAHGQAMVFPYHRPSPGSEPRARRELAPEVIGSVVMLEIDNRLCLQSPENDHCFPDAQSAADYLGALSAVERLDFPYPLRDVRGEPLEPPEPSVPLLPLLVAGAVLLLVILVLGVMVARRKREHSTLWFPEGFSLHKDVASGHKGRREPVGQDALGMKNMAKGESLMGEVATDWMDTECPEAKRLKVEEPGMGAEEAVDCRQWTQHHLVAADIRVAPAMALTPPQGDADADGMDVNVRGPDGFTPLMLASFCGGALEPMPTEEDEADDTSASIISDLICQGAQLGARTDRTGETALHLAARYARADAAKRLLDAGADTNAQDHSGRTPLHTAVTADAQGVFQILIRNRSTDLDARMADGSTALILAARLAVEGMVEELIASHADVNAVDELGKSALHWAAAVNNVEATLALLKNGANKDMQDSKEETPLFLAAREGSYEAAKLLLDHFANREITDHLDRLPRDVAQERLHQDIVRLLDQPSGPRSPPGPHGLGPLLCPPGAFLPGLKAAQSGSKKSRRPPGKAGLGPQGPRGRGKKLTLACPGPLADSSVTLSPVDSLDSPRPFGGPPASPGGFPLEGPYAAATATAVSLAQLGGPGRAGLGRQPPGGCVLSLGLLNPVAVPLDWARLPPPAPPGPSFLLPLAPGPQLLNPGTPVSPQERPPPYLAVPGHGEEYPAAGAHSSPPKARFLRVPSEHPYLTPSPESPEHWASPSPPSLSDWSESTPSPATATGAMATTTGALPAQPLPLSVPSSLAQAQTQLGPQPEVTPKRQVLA
# test_protocol: NOTCH3 binders on small-molecule microarray, primary screen, biochemical, 635/667 nm fluorescence (AID 1096)
# condition_notes: NOTCH3 binding, 635 nm fluorescence, higher = more signal
test_readout: composite z-score
Lab note: record the figure alone, no unit after it.

I would be grateful if you could share the reported composite z-score for CC=CC1=C(CO)[C@H](O)[C@H]2O[C@H]2[C@H]1O .
0.67

# composite z-score lookup, item CCN1C(=O)[C@H]2[C@H]3[C@H](O)C=CC(=O)[C@@H]3CC[C@H]2C1=O
0.705

Fill in the blank: the reported composite z-score of COc1ccc([Si](C)(C)[C@H]2[C@H](CCO)O[C@@]3(C(=O)N(Cc4cccc(NC(=O)[C@H](C)O)c4)c4ccccc43)[C@@H]2C)cc1 is ____.
1.09

Look up composite z-score: CC(=O)OC[C@H]1O[C@H](CC=NOC[C@@H](C)[C@H](OCc2ccccc2)C(C)C)C=C[C@@H]1OC(C)=O
-0.14

Tell me the measured composite z-score of COc1ccc(O[C@H]2C=C[C@@H](c3ccccc3)O[C@@H]2COC(=O)CCC(C)=NOCC[C@@H]2C=C[C@H](OC(C)=O)[C@@H](COC(C)=O)O2)cc1 , please.
0.319

Please give the measured composite z-score for this compound: COCCOC(=O)N1C(=O)[C@@]2(c3cc(C#CC4(O)CCCCCC4)ccc31)[C@H](C(=O)N1CCN(c3ncccn3)CC1)[C@H]1C(=O)O[C@H](c3ccccc3)[C@H](c3ccccc3)N1[C@@H]2c1ccc(OCCO)cc1
1.08

Entry COC(=O)[C@H](C)NC(=O)CCC1CC(OC(=O)NCc2cccc3ccccc23)CC2(CCCC(COC(=O)NCC3CCCCC3)O2)O1 (some centres not stated) has what composite z-score?
1.06

Sourced from PubChem BioAssay
